Examples of molecules with documented growth inhibition follow.
Experiment: NCI Yeast Anticancer Drug Screen. Data for the mlh1 rad18 strain (AID 175)
Conditions: S. cerevisiae mlh1 rad18 strain growth inhibition; at 5.0 µM (retest, dose inferred, filed as 0.5); stronger effect = higher value
The panel holds about 79,000 compounds, 15% with a hit somewhere; the sample as a whole holds those more often. Activity calls are given as the source filed them. No stated cut-off is given here; in the data, active means growth inhibition above about 70%; inactive means the rest.
QUANTITY: growth inhibition

INSERT INTO measurements (molecule, result) VALUES
  ('CN(C)C(=S)/N=c1\ssc(=S)n1Cc1ccco1', '-2% (inactive)'),
  ('CC(C)(C)C1=CC(=CC=C2C=CN(CCO)C=C2)C=C(C(C)(C)C)C1=O', '-6% (inactive)'),
  ('O=C(Cc1csc2[n+]1C(=O)/C(=C/c1cccc([N+](=O)[O-])c1)S2)Nc1ccccc1', '-3% (inactive)'),
  ('C[n+]1c(-c2ccc(/C=N/NC(=O)c3ccc(C(=O)N/N=C/c4ccc(-c5cn6ccccc6[n+]5C)cc4)nc3)cc2)cn2ccccc21', '50% (inactive)'),
  ('CC(=O)c1c2c(cc3c1CC1(Cc4ccccc4C1=O)C3)CCC2 (configuration not stated)', '-11% (inactive)'),
  ('N#Cc1sc2c(c1OC(=O)c1ccc(Cl)cc1)c(=O)n(-c1ccccc1)c(=S)n2-c1ccccc1', '-2% (inactive)'),
  ('COC(=O)CSC(=S)Nc1ccc(Cl)cc1', '7% (inactive)'),
  ('O=C(N/N=C/c1ccc2c(c1)OCO2)c1ccc([N+](=O)[O-])cc1', '3% (inactive)'),
  ('COc1ccc(C2=Nc3cc(C)c(C)cc3NC(c3ccccc3)C2)cc1 (configuration not stated)', '19% (inactive)'),
  ('Clc1ccnc2c1ccc1c(Cl)ccnc12', '3% (inactive)'),
  ('COC(=O)C1(C)CCCC2(C)C3CCC4CC3(C=C4CO)CCC12 (configuration not stated)', '41% (inactive)'),
  ('CCOC(=O)c1c(NC(=O)CBr)sc(C)c1C', '7% (inactive)'),
  ('COc1ccc(-c2cn(-c3ccccc3)c3ncnc(N)c23)cc1', '-2% (inactive)'),
  ('CCCCP(CCCC)(CCCC)=C(C(=O)OC)C(C(=O)OC)=C1SC(C(=O)OC)=C(C(=O)OC)S1', '23% (inactive)'),
  ('CCn1c(=O)cc2n(C)c3ccccc3n2c1=O', '-36% (inactive)'),
  ('c1ccc2c(CCc3ccncc3)cccc2c1', '0% (inactive)'),
  ('O=C1C(Cl)=C(Nc2ccc(S(=O)(=O)Nc3ccccn3)cc2)C(=O)c2ccccc21', '90% (active)'),
  ('COc1ccc2c(c1)CC[C@@H]1C2CC[C@]2(C)OC(=O)CCC12 (some centres not stated)', '12% (inactive)'),
  ('O=[N+]([O-])c1ccc(/C=N/O)o1', '44% (inactive)'),
  ('C(=C\c1cccc2ccccc12)/c1ccncc1', '-11% (inactive)'),
  ('CN(C)c1ccccc1[CH2][Ga]([Cl])[CH2]c1ccccc1N(C)C', '26% (inactive)'),
  ('Clc1ccc2c(NC3CCC(N4CCCCC4)CC3)ccnc2c1 (configuration not stated)', '98% (active)');
